System: HIV mutant strain 2 (E92Q/E138T/G140S/Q148H)
measurement notes: Test Example 2: resistance evaluation test (HeLa-CD4 reporter), mutant strain 2
Type: cell-based
assay context: FC=EC50 of mutant strain/EC50 of wild strain; HeLa-CD4 cells
Decide using FC in respect of mutant strain 2 (E92Q/E138T/G140S/Q148H) alone. Strictly below 20: yes (1). Equal to or above 20: no (0).

[
  {
    "compound": "COC[C@@H]1CC[C@H]2N(C)C(=O)c3c(O)c(=O)c(C(=O)NCc4cccc(Cl)c4F)cn3N12 [II-026]",
    "measured on": "HIV mutant strain 2 (E92Q/E138T/G140S/Q148H)",
    "assigned label": "yes (1)"
  },
  {
    "compound": "CCN1C(=O)c2c(O)c(=O)c(C(=O)NCc3cccc(Cl)c3F)cn2N2[C@H]3COCC3C[C@@H]12 (stereo partly drawn) [II-052]",
    "measured on": "HIV mutant strain 2 (E92Q/E138T/G140S/Q148H)",
    "assigned label": "yes (1)"
  },
  {
    "compound": "CCN1C(=O)c2c(O)c(=O)c(-c3nnc(Cc4ccc(F)cc4F)s3)cn2N2C[C@@H]3CC[C@@H](C3)[C@@H]12 [II-130]",
    "measured on": "HIV mutant strain 2 (E92Q/E138T/G140S/Q148H)",
    "assigned label": "yes (1)"
  },
  {
    "compound": "CCN1C(=O)c2c(O)c(=O)c(C(=O)NCc3ccc(F)cc3F)cn2N2[C@H]3COC[C@H]3C[C@@H]12 [II-038]",
    "measured on": "HIV mutant strain 2 (E92Q/E138T/G140S/Q148H)",
    "assigned label": "no (0)"
  },
  {
    "compound": "CCN1C(=O)c2c(O)c(=O)c(C(=O)NCc3ccc(F)nc3F)cn2N2C[C@@H]3CC[C@@H](O3)[C@@H]12 [II-152]",
    "measured on": "HIV mutant strain 2 (E92Q/E138T/G140S/Q148H)",
    "assigned label": "no (0)"
  },
  {
    "compound": "CCN1C(=O)c2c(O)c(=O)c(-c3nnc(Cc4c(F)cc(F)cc4F)s3)cn2N2[C@H](C)CCC[C@@H]12 [II-125]",
    "measured on": "HIV mutant strain 2 (E92Q/E138T/G140S/Q148H)",
    "assigned label": "no (0)"
  }
]

###

measurement notes: Test Example 8: metabolic stability test
Format: in vitro ADME, human
assay context: pooled human liver microsomes, 30 min at 37° C., NADPH, compound concentration 0.5 μmol/L

[
  {
    "smiles": "C[C@H]1CC[C@H]2N(C)C(=O)c3c(O)c(=O)c(-c4nnc(Cc5ccc(F)cc5F)s4)cn3N2C1",
    "Remaining percentage / %": 95.5
  },
  {
    "smiles": "CCN1C(=O)c2c(O)c(=O)c(-c3nnc(Cc4cc(F)c(F)cc4F)s3)cn2N2CCCC[C@@H]12",
    "Remaining percentage / %": 72.2
  },
  {
    "smiles": "CCN1C(=O)c2c(O)c(=O)c(-c3nnc(Cc4ccc(F)cc4F)s3)cn2N2C[C@@H](C)CC[C@@H]12",
    "Remaining percentage / %": 93
  },
  {
    "smiles": "CN1C(=O)c2c(O)c(=O)c(C(=O)NCc3cccc(Cl)c3F)cn2N2C[C@@H]3CCC[C@@H](C3)[C@@H]12",
    "Remaining percentage / %": 75.4
  },
  {
    "smiles": "CC(C)N1C(=O)c2c(O)c(=O)c(C(=O)NCc3ccc(F)cc3F)cn2N2C[C@@H]3CC[C@@H](O3)[C@@H]12",
    "Remaining percentage / %": 89.1
  },
  {
    "smiles": "CN1C(=O)c2c(O)c(=O)c(C(=O)NCc3ccc(F)cc3F)cn2N2CCCC[C@@H]12",
    "Remaining percentage / %": 103
  },
  {
    "smiles": "CCN1C(=O)c2c(O)c(=O)c(-c3nnc(Cc4ccc(F)cc4F)s3)cn2N2[C@H](COC)CC[C@@H]12",
    "Remaining percentage / %": 96.5
  },
  {
    "smiles": "CN1C(=O)c2c(O)c(=O)c(-c3nnc(Cc4cccc(Cl)c4F)s3)cn2N2CCOC[C@@H]12",
    "Remaining percentage / %": 102
  },
  {
    "smiles": "CCN1C(=O)c2c(O)c(=O)c(C(=O)NCc3c(F)cc(F)cc3F)cn2N2C[C@@H](C)C[C@@H]12",
    "Remaining percentage / %": 83.2
  },
  {
    "smiles": "CCN1C(=O)c2c(O)c(=O)c(C(=O)NCc3c(F)cc(F)cc3F)cn2N2CCCC[C@@H]12",
    "Remaining percentage / %": 88
  },
  {
    "smiles": "C[C@H]1CC[C@H]2N(C)C(=O)c3c(O)c(=O)c(C(=O)NCc4cccc(Cl)c4F)cn3N2C1",
    "Remaining percentage / %": 84.1
  },
  {
    "smiles": "CCN1C(=O)c2c(O)c(=O)c(C(=O)NCc3ccc(F)cc3F)cn2N2C[C@@H](COC)C[C@@H]12",
    "Remaining percentage / %": 94.3
  },
  {
    "smiles": "CCN1C(=O)c2c(O)c(=O)c(C(=O)NCc3ccc(F)cc3F)cn2N2CC[C@@H](C)C[C@@H]12",
    "Remaining percentage / %": 82.9
  },
  {
    "smiles": "CN1C(=O)c2c(O)c(=O)c(-c3nnc(Cc4ccc(F)cc4F)s3)cn2N2C[C@@H]3CC[C@@H](C3)[C@@H]12",
    "Remaining percentage / %": 93.9
  },
  {
    "smiles": "COC[C@@H]1CC[C@H]2N(C(C)C)C(=O)c3c(O)c(=O)c(C(=O)NCc4ccccc4F)cn3N12",
    "Remaining percentage / %": 80.8
  },
  {
    "smiles": "CC(C)N1C(=O)c2c(O)c(=O)c(C(=O)NCc3c(F)cc(F)cc3F)cn2N2C[C@@H]3CC[C@@H](O3)[C@@H]12",
    "Remaining percentage / %": 80.2
  },
  {
    "smiles": "CCN1C(=O)c2c(O)c(=O)c(-c3nnc(Cc4ccc(F)cc4)s3)cn2N2C[C@@H]3CC[C@@H](O3)[C@@H]12",
    "Remaining percentage / %": 103
  },
  {
    "smiles": "CCN1C(=O)c2c(O)c(=O)c(C(=O)NCc3ccc(F)cc3F)cn2N2C[C@@H]3CCC[C@@H](O3)[C@@H]12",
    "Remaining percentage / %": 98.6
  },
  {
    "smiles": "CCN1C(=O)c2c(O)c(=O)c(-c3nnc(Cc4c(F)cc(F)cc4F)s3)cn2N2[C@H](C)CCC[C@@H]12",
    "Remaining percentage / %": 88.5
  },
  {
    "smiles": "CN1C(=O)c2c(O)c(=O)c(-c3nnc(Cc4c(F)cc(F)cc4F)s3)cn2N2C[C@@H]3CC[C@@H](C3)[C@@H]12",
    "Remaining percentage / %": 96.5
  },
  {
    "smiles": "CN1C(=O)c2c(O)c(=O)c(C(=O)NCc3cccc(F)c3F)cn2N2CCCC[C@@H]12",
    "Remaining percentage / %": 96.9
  },
  {
    "smiles": "C[C@@H]1CCN2[C@@H](C1)N(C)C(=O)c1c(O)c(=O)c(-c3nnc(Cc4c(F)cc(F)cc4F)s3)cn12",
    "Remaining percentage / %": 94.2
  }
]

src = patent US12564595B2
